The reported numbers originate from patent US20130344026A1.

- Tested on: PANC-1 cells
- Method Description: cell viability assay in PANC-1 cells (compound alone, + 100 ng/ml TNFa, + 300 ng/ml TRAIL)
- Format: cell-based
- Measurement Context: with 100 ng/ml TNFa; Tables 6-10; read-out: IC50 (μM) in cell viability assay in PANC-1 cells: Compound + 100 ng/ml TNFa
Reported values of IC50 for individual entries

# annotated cases, reported IC50 shown
Compound	Test Value
CN[C@@H](C)C(=O)N[C@@H](CCCCCC[C@H](NC(=O)[C@H](C)NC)C(=O)N[C@H]1c2ccccc2C[C@@H]1NC(=O)c1c(OC)cccc1OC)C(=O)N[C@H]1c2ccccc2C[C@@H]1NC(=O)c1c(OC)cccc1OC [Compound 59]	> 1 µM
CN[C@@H](C)C(=O)N[C@H](C(=O)N1CCC[C@H]1Cn1ccnc1Cc1ccccc1)[C@@H](C)OCC#CC#CCO[C@H](C)[C@H](NC(=O)[C@H](C)NC)C(=O)N1CCC[C@H]1Cn1ccnc1Cc1ccccc1 [Compound 74]	> 1 µM

Input line: If you can, please state the reported IC50 value of CN[C@@H](C)C(=O)Nc1nc(CC(=O)NCCCC[C@H](NC(=O)[C@H](C)NC)C(=O)N2CCC[C@H]2C(=O)N[C@@H]2CCCc3ccccc32)cs1 [Compound 189] .
Output line: > 1 µM
